The origin of these recorded values is the supplement of paper PMC10266784.

B1: library; numbered along this chain (parent)
chain: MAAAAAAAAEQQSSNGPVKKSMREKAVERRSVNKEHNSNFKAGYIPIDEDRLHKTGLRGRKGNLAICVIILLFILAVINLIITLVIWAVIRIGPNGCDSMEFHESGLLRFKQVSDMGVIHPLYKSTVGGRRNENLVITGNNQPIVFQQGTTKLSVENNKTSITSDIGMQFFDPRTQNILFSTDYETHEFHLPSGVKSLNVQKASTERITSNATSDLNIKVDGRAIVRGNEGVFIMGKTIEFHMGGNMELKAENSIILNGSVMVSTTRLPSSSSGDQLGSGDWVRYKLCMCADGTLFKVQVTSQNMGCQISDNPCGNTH

variants of: B1; experiment: SGCB cell-surface expression functional score (HA stain, bin4 vs bin1, normalised to synonymous) (log10 ratio); higher = more cell-surface SGCB (functional)
Please provide measured SGCB cell-surface expression functional score (log10) for the entries that follow.
Respond with the number and no other words.

Prompt line: What SGCB cell-surface expression functional score (log10) value was documented for this variant, L295V ?
Response line: -0.12

Prompt line: Recorded SGCB cell-surface expression functional score (log10) of T238E , please.
Response line: 0.87

Prompt line: Record request: SGCB cell-surface expression functional score (log10) value, item Q142K
Response line: -0.31

Prompt line: What SGCB cell-surface expression functional score (log10) value was documented for this variant, S273Y ?
Response line: 0.11

Prompt line: Could you tell me which SGCB cell-surface expression functional score (log10) is on file for G315F ?
Response line: -0.43

Prompt line: I am curious: what SGCB cell-surface expression functional score (log10) value has been reported for Q169Y ?
Response line: -0.36

Prompt line: Look up SGCB cell-surface expression functional score (log10) for this variant: S38M
Response line: -0.54

Prompt line: # input variant: I208P ; wanted: its SGCB cell-surface expression functional score (log10)
Response line: -1.33

Prompt line: Suppose we examine the variant R58C ; what SGCB cell-surface expression functional score (log10) value has been reported?
Response line: -0.55

Prompt line: Which SGCB cell-surface expression functional score (log10) is reported for this variant? Q176C
Response line: 1.06

Prompt line: Please give the measured SGCB cell-surface expression functional score (log10) for this variant: T160K
Response line: -2.03

Prompt line: Return reported SGCB cell-surface expression functional score (log10); argument: D275I
Response line: -0.42

Prompt line: For the variant shown here, Q142R , give the reported SGCB cell-surface expression functional score (log10).
Response line: -0.5

Prompt line: State the recorded SGCB cell-surface expression functional score (log10) for this entry: M1W
Response line: -0.07

Prompt line: Form field: reported SGCB cell-surface expression functional score (log10) of R58G
Response line: 0

Prompt line: I'd like to know its SGCB cell-surface expression functional score (log10). The variant in question is T151Y
Response line: -1

Prompt line: Query: SGCB cell-surface expression functional score (log10); subject: E28T
Response line: 0.1

Prompt line: I'd like to know its SGCB cell-surface expression functional score (log10). The variant in question is G59I
Response line: -0.01

Prompt line: // query SGCB cell-surface expression functional score (log10) value for entry T205V
Response line: -0.05

Prompt line: What does the data say about its SGCB cell-surface expression functional score (log10)? Entry: G106H
Response line: -0.43

Prompt line: Sample F296D — what was its SGCB cell-surface expression functional score (log10)?
Response line: -0.42

Prompt line: What value of SGCB cell-surface expression functional score (log10) has been reported for the following variant? V195R
Response line: -1.37
